Data origin: ChEMBL document CHEMBL4665803

- assay.target: Transcriptional enhancer factor TEF-3 (Homo sapiens, UniProt Q15561)
- Sequence (Q15561 whole entry, the tested form may be a part): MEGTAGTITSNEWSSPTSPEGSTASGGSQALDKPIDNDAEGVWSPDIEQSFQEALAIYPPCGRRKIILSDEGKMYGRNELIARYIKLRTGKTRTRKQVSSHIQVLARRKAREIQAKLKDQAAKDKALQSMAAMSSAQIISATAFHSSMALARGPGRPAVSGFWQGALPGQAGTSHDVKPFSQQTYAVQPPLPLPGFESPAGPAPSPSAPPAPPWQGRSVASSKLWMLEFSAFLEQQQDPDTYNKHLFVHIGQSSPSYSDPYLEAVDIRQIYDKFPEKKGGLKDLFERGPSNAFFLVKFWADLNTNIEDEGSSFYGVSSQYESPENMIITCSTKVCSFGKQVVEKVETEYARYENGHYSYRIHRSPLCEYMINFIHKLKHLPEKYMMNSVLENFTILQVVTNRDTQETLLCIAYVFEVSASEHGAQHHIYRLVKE
- protocol.summary: Inhibition of FITC-labeled palmitate tracer binding to N-terminal His6-tagged human TEAD4 (217 to 434 residues) expressed in Escherichia coli BL21-CodonPlus (DE3)-RIPL cells preincubated for 10 mins followed by FITC-labeled palmitate tracer addition and measured after 1 hr by fluorescence assay
pIC50 overview
Formally, pIC50 is defined as -log10 of the concentration c, with c in mol/L.

Please review the entries below; each comes with its answer.
{"molecule": "NC(=O)c1ccc(C(Nc2ccccc2)c2oc(CO)cc(=O)c2O)cc1 (stereo unspecified)", "observed.property": "pIC50", "value": 6.52}
{"molecule": "O=c1cc(CO)oc(C(Nc2ccccn2)c2cccnc2)c1O (stereo unspecified)", "observed.property": "pIC50", "value": 4.83}
{"molecule": "O=c1cc(CO)oc(C(Nc2ccccn2)c2ccccc2)c1O (stereo unspecified)", "observed.property": "pIC50", "value": 6.52}
{"molecule": "NC(=O)c1ccc(NC(c2ccccc2)c2oc(CO)cc(=O)c2O)cc1 (stereo unspecified)", "observed.property": "pIC50", "value": 6.52}
{"molecule": "O=c1cc(CO)oc(C(Nc2ccccc2)c2ccccn2)c1O (stereo unspecified)", "observed.property": "pIC50", "value": 6.30}
{"molecule": "CC(C)C(Nc1ccccc1)c1oc(CO)cc(=O)c1O (stereo unspecified)", "observed.property": "pIC50", "value": 4.42}

Query: Give pIC50 for NC(=O)c1ccc(NC(c2ccccn2)c2oc(CO)cc(=O)c2O)cc1 (stereo unspecified)
Reply: 5.96

Query: Give pIC50 for O=c1cc(CO)oc(C(Nc2ccccn2)c2ccc(Br)cc2)c1O (stereo unspecified)
Reply: 6.40

Query: Give pIC50 for O=c1cc(CO)oc(C(Nc2ccccc2)C2CCCCC2)c1O (stereo unspecified)
Reply: 4.65

Query: Give pIC50 for O=c1cc(CO)oc(C(Nc2ccccc2)c2ccccc2)c1O (stereo unspecified)
Reply: 6.70

Query: Give pIC50 for O=c1cc(CO)oc(C(Nc2ccccc2)c2ccc(Br)cc2)c1O (stereo unspecified)
Reply: 6.70

----------
- assay.target: Transcriptional enhancer factor TEF-3 (Homo sapiens, UniProt Q15561)
- protocol.summary: Inhibition of FITC-labeled palmitate tracer binding to N-terminal His6-tagged human TEAD4 (217 to 434 residues) expressed in Escherichia coli BL21-CodonPlus (DE3)-RIPL cells preincubated for 10 mins followed by FITC-labeled palmitate tracer addition and measured after 1 hr by fluorescence assay
pIC50: −log10 of the molar value.
Classification field: enter MET for pIC50 values not below 5, NOT MET for values below it.

{"compound": "CC(C)NC(c1ccccc1)c1oc(CO)cc(=O)c1O (centres undefined)", "class.assignment": "MET"}

Query: Does the compound COc1c(C(Nc2ccccn2)c2ccccc2F)oc(CO)cc1=O (centres undefined) have recorded pIC50 that is 5 or more?
Reply: NOT MET

Query: Does the compound CC(C)c1ccc(C(Nc2ccccc2)c2oc(CO)cc(=O)c2O)cc1 (centres undefined) have recorded pIC50 that is 5 or more?
Reply: MET

Query: Does the compound O=c1cc(CO)oc(C(NCc2ccccc2)c2ccccc2)c1O (centres undefined) have recorded pIC50 that is 5 or more?
Reply: MET

Query: Does the compound COc1c(C(Nc2ccccc2)c2ccccc2)oc(CO)cc1=O (centres undefined) have recorded pIC50 that is 5 or more?
Reply: NOT MET

Query: Does the compound `O=c1cc(CO)oc(CNc2ccccc2)c1O` have recorded pIC50 that is 5 or more?
Reply: NOT MET

Query: Does the compound O=c1cc(CO)oc(C(Nc2ccccc2)c2ccc3ccccc3c2)c1O (centres undefined) have recorded pIC50 that is 5 or more?
Reply: MET

Query: Does the compound O=c1cc(CO)oc(C(Nc2ccccn2)c2ccccc2F)c1O (centres undefined) have recorded pIC50 that is 5 or more?
Reply: MET

Query: Does the compound O=c1cc(CO)oc(C(c2ccccc2)N2Cc3ccccc3C2)c1O (centres undefined) have recorded pIC50 that is 5 or more?
Reply: MET

Query: Does the compound Cc1ccnc(NC(c2ccccc2)c2oc(CO)cc(=O)c2O)c1 (centres undefined) have recorded pIC50 that is 5 or more?
Reply: MET

----------
Tm overview
- assay.target: Transcriptional enhancer factor TEF-3 (Homo sapiens, UniProt Q15561)
- protocol.summary: Binding affinity to nonacylated N-terminal His6-tagged human TEAD4 (217 to 434 residues) expressed in Escherichia coli BL21-CodonPlus (DE3)-RIPL cells assessed as melting temperature at 80 uM after 10 mins by SYPRO orange dye-based differential scanning fluorimetry method (reference value: 41 degreeC)
The reply should be a number in °C, with the unit left off.

Please review the entries below; each comes with its answer.
{"compound": "O=c1cc(CO)oc(C(Nc2nccs2)c2ccccc2)c1O (centres undefined)", "Tm, °C": 41}
{"compound": "O=c1cc(CO)oc(C(Nc2ccccn2)c2ccc(Br)cc2)c1O (centres undefined)", "Tm, °C": 39}
{"compound": "O=c1cc(CO)oc(C(Nc2ccccc2)c2ccccc2)c1O (centres undefined)", "Tm, °C": 36}

Query: Give Tm for COc1c(C(Nc2ccccc2)c2ccccc2)oc(CO)cc1=O (centres undefined)
Reply: 41

----------
pIC50 overview
- assay.target: Transcriptional enhancer factor TEF-3 (Homo sapiens, UniProt Q15561)
- protocol.summary: Inhibition of CPM binding to N-terminal His6-tagged human TEAD4 (217 to 434 residues) expressed in Escherichia coli BL21-CodonPlus (DE3)-RIPL cells preincubated for 10 mins followed by CPM addition and measured after 1 hr by fluorescence assay
- condition.notes: read-out: IC50(app)
Formally, pIC50 is defined as -log10 of the concentration c, with c in mol/L.

Please review the entries below; each comes with its answer.
{"compound": "O=C(CCl)c1ccccc1Nc1cccc(C(F)(F)F)c1", "pIC50": 6.10}
{"compound": "O=c1cc(CO)oc(C(Nc2nccs2)c2ccccc2)c1O (stereo not given)", "pIC50": 4.27}
{"compound": "O=c1cc(CO)oc(C(Nc2ccccc2)c2ccc3ccccc3c2)c1O (stereo not given)", "pIC50": 5.96}
{"compound": "NC(=O)c1ccc(NC(c2ccccc2)c2oc(CO)cc(=O)c2O)cc1 (stereo not given)", "pIC50": 5.77}

Query: Answer with pIC50 of O=c1cc(CO)oc(C(Nc2ccccn2)c2ccc(Br)cc2)c1O (stereo not given) measured for Transcriptional enhancer factor TEF-3 (Homo sapiens, UniProt Q15561).
Reply: 5.43

Query: Answer with pIC50 of O=c1cc(CO)oc(C(Nc2ccccc2)c2ccccc2F)c1O (stereo not given) measured for Transcriptional enhancer factor TEF-3 (Homo sapiens, UniProt Q15561).
Reply: 6.15

Query: Answer with pIC50 of O=c1cc(CO)oc(C(Nc2ccccc2)c2ccccn2)c1O (stereo not given) measured for Transcriptional enhancer factor TEF-3 (Homo sapiens, UniProt Q15561).
Reply: 4.72

Query: Answer with pIC50 of CC(C)NC(c1ccccc1)c1oc(CO)cc(=O)c1O (stereo not given) measured for Transcriptional enhancer factor TEF-3 (Homo sapiens, UniProt Q15561).
Reply: 4.77

----------
IC50 overview
- assay.target: Transcriptional enhancer factor TEF-3 (Homo sapiens)
- protocol.summary: Inhibition of CPM binding to N-terminal His6-tagged human TEAD4 (217 to 434 residues) expressed in Escherichia coli BL21-CodonPlus (DE3)-RIPL cells preincubated for 10 mins followed by CPM addition and measured after 1 hr by fluorescence assay
- condition.notes: read-out: IC50(app)
The reply should be a number in nM, with the unit left off.

{"compound": "O=c1cc(CO)oc(C(Nc2ccccc2)c2ccc(F)cc2)c1O (stereo unspecified)", "assay.target": "Transcriptional enhancer factor TEF-3 (Homo sapiens)", "result.units": "nM", "IC50": 1900}
{"compound": "Cc1ccc(C(Nc2ccccc2)c2oc(CO)cc(=O)c2O)cc1 (stereo unspecified)", "assay.target": "Transcriptional enhancer factor TEF-3 (Homo sapiens)", "result.units": "nM", "IC50": 1300}
{"compound": "O=c1cc(CO)oc(C(NCc2ccccc2)c2ccccc2)c1O (stereo unspecified)", "assay.target": "Transcriptional enhancer factor TEF-3 (Homo sapiens)", "result.units": "nM", "IC50": 4000}
{"compound": "O=c1cc(CO)oc(C(Nc2cccc(F)c2)c2ccccc2)c1O (stereo unspecified)", "assay.target": "Transcriptional enhancer factor TEF-3 (Homo sapiens)", "result.units": "nM", "IC50": 1500}
{"compound": "O=c1cc(CO)oc(C(Nc2ccccn2)c2ccccc2F)c1O (stereo unspecified)", "assay.target": "Transcriptional enhancer factor TEF-3 (Homo sapiens)", "result.units": "nM", "IC50": 3200}

Query: Give IC50 for O=c1cc(CO)oc(C(Nc2ccccc2)c2ccc(Br)cc2)c1O (stereo unspecified)
Reply: 1200

Query: Give IC50 for O=c1cc(CO)oc(C(Nc2ccccn2)c2ccccc2)c1O (stereo unspecified)
Reply: 3100

Query: Give IC50 for CC(C)c1ccc(C(Nc2ccccc2)c2oc(CO)cc(=O)c2O)cc1 (stereo unspecified)
Reply: 1000
